# test target: hERG (Homo sapiens, UniProt Q12809)
# Sequence (Q12809 whole entry): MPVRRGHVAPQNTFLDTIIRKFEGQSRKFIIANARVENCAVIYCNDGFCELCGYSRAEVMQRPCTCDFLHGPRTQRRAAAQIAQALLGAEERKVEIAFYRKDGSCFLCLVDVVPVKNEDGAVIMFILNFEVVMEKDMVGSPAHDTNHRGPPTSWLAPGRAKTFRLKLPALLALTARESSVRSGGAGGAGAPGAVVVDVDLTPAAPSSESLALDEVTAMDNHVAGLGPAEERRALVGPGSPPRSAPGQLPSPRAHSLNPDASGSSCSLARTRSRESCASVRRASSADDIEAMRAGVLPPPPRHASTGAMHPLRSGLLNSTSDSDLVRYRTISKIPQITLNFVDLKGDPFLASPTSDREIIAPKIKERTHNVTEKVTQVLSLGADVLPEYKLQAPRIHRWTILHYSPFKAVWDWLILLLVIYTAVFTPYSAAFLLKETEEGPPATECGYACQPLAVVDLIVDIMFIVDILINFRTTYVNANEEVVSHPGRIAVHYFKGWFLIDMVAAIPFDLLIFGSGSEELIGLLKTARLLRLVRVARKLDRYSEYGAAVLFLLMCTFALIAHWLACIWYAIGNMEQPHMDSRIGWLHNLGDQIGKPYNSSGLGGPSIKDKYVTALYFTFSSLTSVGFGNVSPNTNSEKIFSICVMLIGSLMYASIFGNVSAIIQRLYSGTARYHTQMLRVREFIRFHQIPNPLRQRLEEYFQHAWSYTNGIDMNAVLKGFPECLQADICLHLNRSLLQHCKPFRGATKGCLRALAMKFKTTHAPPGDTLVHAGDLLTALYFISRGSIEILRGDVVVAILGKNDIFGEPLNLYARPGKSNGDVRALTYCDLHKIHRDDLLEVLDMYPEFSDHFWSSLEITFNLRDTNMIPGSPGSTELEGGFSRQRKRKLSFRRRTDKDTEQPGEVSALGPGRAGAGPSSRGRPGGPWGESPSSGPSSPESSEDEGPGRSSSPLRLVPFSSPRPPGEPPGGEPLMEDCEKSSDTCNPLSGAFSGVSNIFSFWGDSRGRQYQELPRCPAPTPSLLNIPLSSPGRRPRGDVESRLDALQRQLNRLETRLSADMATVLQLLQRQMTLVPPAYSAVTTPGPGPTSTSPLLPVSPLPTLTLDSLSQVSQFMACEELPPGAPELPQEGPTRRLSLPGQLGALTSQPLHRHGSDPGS
# assay explanation: Functional assay at several concentrations
# Type: biochemical
# experimental parameters: antagonistic effect
assay metric: IC50

Could you share which IC50 value was measured for CN(C)c1ccc2cc3ccc(N(C)C)cc3[n+](CCF)c2c1 [SYN2] ?
~1000 nM

====

# Test system: dog hepatocytes
# assay explanation: Metabolite profiling in cryopreserved hepatocytes (in vitro MetID)
# Assay type: in vitro ADME
# experimental parameters: 30 min, 1 µM SYN2, 37 °C
assay metric: Relative abundance of metabolites calculated as % of parent (SYN2), Dog

{"columns": ["molecule", "result"],
 "data": [
  ["CN(C)c1ccc2cc3ccc(N(C)C)cc3nc2c1", "Trace"],
  ["CNc1ccc2cc3ccc(N)cc3[n+](CCF)c2c1", "9 % of parent"],
  ["CNc1ccc2cc3ccc(N(C)C)cc3[n+](CCF)c2c1", "34 % of parent"],
  ["CN(C)c1ccc2cc3ccc(N(C)C)cc3[n+](CCF)c2c1 [SYN2]", "100 % of parent"]
]}

====

# Test system: human hepatocytes
# assay explanation: Metabolite profiling in cryopreserved hepatocytes (in vitro MetID)
# Type: in vitro ADME
# experimental parameters: 30 min, 1 µM SYN2, 37 °C
In this section, each of the molecules is paired with its reported Relative abundance of metabolites calculated as % of parent (SYN2), Human.

Consider the reported Relative abundance of metabolites calculated as % of parent (SYN2), Human for these molecules:
{"columns": ["molecule", "result"],
 "data": [
  ["CN(C)c1ccc2cc3ccc(N(C)C)cc3[n+](CCF)c2c1 [SYN2]", "100 % of parent"],
  ["CN(C)c1ccc2cc3ccc(N(C)C)cc3nc2c1 [M4]", "1 % of parent"],
  ["CNc1ccc2cc3ccc(N(C)C)cc3[n+](CCF)c2c1 [M1]", "10 % of parent"]
]}

Turning now to a further record.
Query (molecule): CNc1ccc2cc3ccc(N)cc3[n+](CCF)c2c1 [M3] ; field requested: Relative abundance of metabolites calculated as % of parent (SYN2), Human
1 % of parent
